- SYSTEM: HLA-A*26:01
- EXPERIMENTAL_PROTOCOL: IEDB peptide-MHC binding, purified MHC/direct/fluorescence; filed as Kd, often an IC50 or EC50 that approximates it; bounds were set here for any values at or beyond the usual limits of such assays
- MEASUREMENT_PARAMETERS: source organism: Mycobacterium tuberculosis
pKd: −log10 of the molar value.
ENDPOINT_LABEL: pKd

[Q] Hello, please tell me recorded pKd for this one: SIYYTLVRM
[A] ≤ 4.70

----------
- SYSTEM: HLA-B*44:02
- EXPERIMENTAL_PROTOCOL: IEDB peptide-MHC binding, purified MHC/competitive/radioactivity; filed as Kd, often an IC50 or EC50 that approximates it; bounds were set here for any values at or beyond the usual limits of such assays
- MEASUREMENT_PARAMETERS: source organism: Dengue virus 3 Martinique/1243/1999
ENDPOINT_LABEL: Kd

Reference set (2 entries):
>>> test_value("EEHNSTWHY")
"0.0153 µM"
>>> test_value("EEMFKKRNL")
"0.0512 µM"

// next item, Kd requested
[Q] Fill in reported Kd for this entry: LEKASLIEV
[A] ≥ 77.9 µM

----------
- SYSTEM: HLA-A*03:01
- EXPERIMENTAL_PROTOCOL: IEDB peptide-MHC binding, purified MHC/competitive/fluorescence; bounds were set here for any values at or beyond the usual limits of such assays
- MEASUREMENT_PARAMETERS: source organism: Human papillomavirus 16
ENDPOINT_LABEL: pIC50
pIC50 here is simply -log10 of the concentration when that concentration is written in mol/L.

[Q] Read the entry KFYSKISEY and write its reported pIC50.
[A] 5.52

----------
- SYSTEM: HLA-B*08:01
- EXPERIMENTAL_PROTOCOL: IEDB peptide-MHC binding, purified MHC/competitive/fluorescence; filed as Kd, often an IC50 or EC50 that approximates it; bounds were set here for any values at or beyond the usual limits of such assays
- MEASUREMENT_PARAMETERS: source organism: Araucaria virus
ENDPOINT_LABEL: pKd
Kindly note that pKd refers to -log10 of the concentration in mol/L and answer with the value alone.

[Q] Kindly indicate its recorded pKd. Item: ELRQLAQSL
[A] 6.81

----------
- SYSTEM: HLA-B*15:01
- EXPERIMENTAL_PROTOCOL: IEDB peptide-MHC binding, purified MHC/competitive/fluorescence; filed as Kd, often an IC50 or EC50 that approximates it; bounds were set here for any values at or beyond the usual limits of such assays
- MEASUREMENT_PARAMETERS: source organism: Araucaria virus
ENDPOINT_LABEL: Kd

[Q] Quickly give me recorded Kd for ELRQLAQSL
[A] ≥ 20 µM

----------
- SYSTEM: HLA-A*02:03
- EXPERIMENTAL_PROTOCOL: IEDB peptide-MHC binding, purified MHC/direct/fluorescence; filed as Kd, often an IC50 or EC50 that approximates it; bounds were set here for any values at or beyond the usual limits of such assays
- MEASUREMENT_PARAMETERS: source organism: Vibrio vulnificus YJ016
pKd: −log10 of the molar value.
ENDPOINT_LABEL: pKd

[Q] Give a short answer stating reported pKd for TSCAPMMQK .
[A] ≤ 4.70

----------
- SYSTEM: HLA-A*02:19
- EXPERIMENTAL_PROTOCOL: IEDB peptide-MHC binding, purified MHC/direct/fluorescence; filed as Kd, often an IC50 or EC50 that approximates it; bounds were set here for any values at or beyond the usual limits of such assays
- MEASUREMENT_PARAMETERS: source organism: Ebola virus Yambio0403
ENDPOINT_LABEL: Kd

[Q] Tell me Kd reported for ESLLHQASW
[A] ≥ 20 µM

----------
- SYSTEM: HLA-A*24:02
- EXPERIMENTAL_PROTOCOL: IEDB peptide-MHC binding, purified MHC/direct/fluorescence; filed as Kd, often an IC50 or EC50 that approximates it; bounds were set here for any values at or beyond the usual limits of such assays
- MEASUREMENT_PARAMETERS: source organism: Escherichia coli O157:H7
pKd: −log10 of the molar value.
ENDPOINT_LABEL: pKd

[Q] Enter measured pKd, system HLA-A*24:02, for the sequence shown: PLKVKDIPF
[A] ≤ 4.70

----------
- SYSTEM: HLA-B*57:01
- EXPERIMENTAL_PROTOCOL: IEDB peptide-MHC binding, purified MHC/competitive/fluorescence; filed as Kd, often an IC50 or EC50 that approximates it; bounds were set here for any values at or beyond the usual limits of such assays
- MEASUREMENT_PARAMETERS: source organism: Shigella boydii CDC 3083-94
ENDPOINT_LABEL: Kd

[Q] Identify Kd associated with the sequence MAMTGLPQA
[A] ≥ 20 µM

----------
- SYSTEM: HLA-B*40:02
- EXPERIMENTAL_PROTOCOL: IEDB peptide-MHC binding, purified MHC/competitive/radioactivity; filed as Kd, often an IC50 or EC50 that approximates it; bounds were set here for any values at or beyond the usual limits of such assays
- MEASUREMENT_PARAMETERS: source organism: Mammarenavirus brazilense
ENDPOINT_LABEL: Kd (nM)
Just the number please, in nM, no unit attached.

[Q] Consider the sequence AENGELTEI tested on HLA-B*40:02; state its Kd.
[A] 47.8

----------
- SYSTEM: HLA-B*15:01
- EXPERIMENTAL_PROTOCOL: IEDB peptide-MHC binding, purified MHC/competitive/fluorescence; filed as Kd, often an IC50 or EC50 that approximates it; bounds were set here for any values at or beyond the usual limits of such assays
- MEASUREMENT_PARAMETERS: source organism: Escherichia coli 536
pKd: −log10 of the molar value.
ENDPOINT_LABEL: pKd

[Q] Entry FSSQALVLI needs its pKd filled in; supply it.
[A] ≤ 4.70

----------
- SYSTEM: HLA-A*11:01
- EXPERIMENTAL_PROTOCOL: IEDB peptide-MHC binding, purified MHC/direct/fluorescence; filed as Kd, often an IC50 or EC50 that approximates it; bounds were set here for any values at or beyond the usual limits of such assays
- MEASUREMENT_PARAMETERS: source organism: Burkholderia mallei
Listed below: Kd values for each entry.

# example entries with known answers
>>> test_value("IQRRGAQFQ")
"≥ 20 µM"
>>> test_value("IYDFYNAEY")
"≥ 20 µM"

[Q] Return value of Kd for input TGHPWITFK , no commentary.
[A] 0.116 µM

----------
- SYSTEM: HLA-A*68:01
- EXPERIMENTAL_PROTOCOL: IEDB peptide-MHC binding, purified MHC/competitive/radioactivity; filed as Kd, often an IC50 or EC50 that approximates it; bounds were set here for any values at or beyond the usual limits of such assays
- MEASUREMENT_PARAMETERS: source organism: Mammarenavirus whitewaterense
Below, each entry is listed with its recorded pKd.
Please keep in mind that pKd is minus log10 of the molar concentration; only the number is needed.

>>> test_value("KWMLISSELK")
6.05

Lab note: next sequence to report on.
[Q] Answer with pKd of KCFANNQDER measured for HLA-A*68:01.
[A] 5.16

----------
- SYSTEM: HLA-A*32:01
- EXPERIMENTAL_PROTOCOL: IEDB peptide-MHC binding, purified MHC/competitive/radioactivity; filed as Kd, often an IC50 or EC50 that approximates it; bounds were set here for any values at or beyond the usual limits of such assays
- MEASUREMENT_PARAMETERS: source organism: Lymphocytic choriomeningitis virus (strain Armstrong)
ENDPOINT_LABEL: Kd

[Q] Indicate the recorded Kd value for this sequence: VCLSGEGWPY
[A] ≥ 26.1 µM

----------
- SYSTEM: HLA-B*40:01
- EXPERIMENTAL_PROTOCOL: IEDB peptide-MHC binding, purified MHC/competitive/fluorescence; filed as Kd, often an IC50 or EC50 that approximates it; bounds were set here for any values at or beyond the usual limits of such assays
- MEASUREMENT_PARAMETERS: source organism: Escherichia coli
ENDPOINT_LABEL: Kd (nM)
Unit nM implied. Number only.

[Q] Read the entry LQEEMAETL and write its reported Kd.
[A] 866

----------
Each item that follows carries a reported Kd.
- SYSTEM: HLA-B*46:01
- EXPERIMENTAL_PROTOCOL: IEDB peptide-MHC binding, purified MHC/direct/fluorescence; filed as Kd, often an IC50 or EC50 that approximates it; bounds were set here for any values at or beyond the usual limits of such assays
- MEASUREMENT_PARAMETERS: source organism: Encephalitozoon cuniculi GB-M1

[Q] Find the measured Kd of HPYVFCALL with HLA-B*46:01 as test system.
[A] ≥ 20 µM

[Q] Name the recorded Kd of SPLPITLKY , assay system HLA-B*46:01.
[A] ≥ 20 µM
